Listed below: pKd values for each entry.
Target: T1, human Fibroblast Activation Protein (FAP), soluble antigen (human, UniProt Q12884 26-760, biotinylated when immobilized on streptavidin sensors)
T1 construct: also called hFAP; biotinylated FAP
T1 sequence (Q12884 26-760 limits assumed): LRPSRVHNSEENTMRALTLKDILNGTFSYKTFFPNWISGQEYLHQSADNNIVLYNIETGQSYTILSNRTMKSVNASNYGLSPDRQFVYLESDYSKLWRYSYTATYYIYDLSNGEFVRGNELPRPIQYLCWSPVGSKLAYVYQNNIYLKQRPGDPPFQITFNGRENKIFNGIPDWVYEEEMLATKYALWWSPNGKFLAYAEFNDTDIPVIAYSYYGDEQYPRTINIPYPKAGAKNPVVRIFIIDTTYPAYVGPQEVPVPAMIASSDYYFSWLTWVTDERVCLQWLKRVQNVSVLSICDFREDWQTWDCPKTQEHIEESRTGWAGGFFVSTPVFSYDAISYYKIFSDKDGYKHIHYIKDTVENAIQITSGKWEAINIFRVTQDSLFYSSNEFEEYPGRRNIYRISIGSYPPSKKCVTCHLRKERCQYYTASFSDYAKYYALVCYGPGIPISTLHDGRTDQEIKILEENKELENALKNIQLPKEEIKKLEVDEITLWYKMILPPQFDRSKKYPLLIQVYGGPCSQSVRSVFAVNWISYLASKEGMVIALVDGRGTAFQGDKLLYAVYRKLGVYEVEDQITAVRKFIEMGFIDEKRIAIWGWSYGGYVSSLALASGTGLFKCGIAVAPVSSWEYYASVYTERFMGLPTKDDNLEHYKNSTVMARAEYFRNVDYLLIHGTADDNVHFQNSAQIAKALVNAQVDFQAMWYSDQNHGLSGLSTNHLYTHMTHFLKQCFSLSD
Assay: BLI per 6.1.3, human FAP;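 note: biolayer interferometry with immobilized antigen on sensors, antibody association up to 240 s then dissociation up to 420 s, reference-subtracted, global 1:1 fit with unlinked Rmax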
pKd: −log10 of the molar value.

binder | pKd
872-5 VH Q96L (antibody, V domains shown) VH: EVQLVESGGGLVQPGGSLRLSCAASGFTFRGYIMSWVRQAPGKGLEWVSWISPEGSRTGYADSVKGRFTISRDNSKNTLYLQMNSLRAEDTAVYYCARLLYGTWFDYWGQGTLVTVSS VL: DIQMTQSPSSLSASVGDRVTITCRASQSISSYLNWYQQKPGKAPKLLIYAASSLQSGVPSRFSGSGSGTDFTLTISSLQPEDFATYYCQQATLLLPTFGQGTKVEIKR | 8.82
872-5 VH S52G:VL A91G/T92R (antibody, V domains shown, BLI per 6.1.3) VH: EVQLVESGGGLVQPGGSLRLSCAASGFTFRGYIMSWVRQAPGKGLEWVSWIGPEGSRTGYADSVKGRFTISRDNSKNTLYLQMNSLRAEDTAVYYCARLQYGTWFDYWGQGTLVTVSS VL: DIQMTQSPSSLSASVGDRVTITCRASQSISSYLNWYQQKPGKAPKLLIYAASSLQSGVPSRFSGSGSGTDFTLTISSLQPEDFATYYCQQGRLLLPTFGQGTKVEIK | 8.66
